B1: SPDEF (parent)
chain: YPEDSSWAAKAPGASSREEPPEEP

variants of: B1; assay: protein stability index of a GFP-peptide fusion (GPS, HEK-293T) (PSI 1-6); higher = more stable; details: c terminus: a fixed tail appended;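 also: lentivirally expressed fusions sorted by FACS into six bins by GFP to DsRed ratio, PSI derived from sequencing read proportions per bin multiplied by bin number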
REPORTED ENDPOINT: protein stability index
Just the number, please.

Would you please look over these solved cases?
{"SEQUENCE CODE": "YPEDQSWAAKAPGASSREEPPEEP [S5Q]", "protein stability index": 4.03}
{"SEQUENCE CODE": "YPEDSSWAAKAPGARSREEPPEEP [S15R]", "protein stability index": 3.96}

Next variant, please.
Return protein stability index (reported value) for this variant: YPKDSSWAAKAPGASSREEPPEEP [E3K] 3.9
